System: HCT-15 colon
METHOD_DESCRIPTION: NCI-60 one-dose screen, 48 h
TEST_PARAMETERS: 10 µM unless noted
This is part of a sample that, as a whole, favours compounds with a hit. Of some 83,000 tested, about 20% had one in any assay. Calls of active or inactive are those of the source. The calls were made as follows: active = growth percent below 10; inactive = the rest.
Choose the fitting class; nothing outside true for active, false for inactive is accepted.

Example entries begin here.
COMPOUND	QUALITATIVE_LABEL
C#Cc1cccc(NC(=O)Nc2cccc(NC(=O)CCl)c2)c1	true
O=C(Cn1c(C(=O)c2ccccc2)nc2ccccc21)c1ccc(F)cc1	false
COc1cc(/C=C2\COc3ccc(-c4ccccc4)cc3C2=O)cc(OC)c1	false
COc1ccc(C(=O)Nc2cccc(C3CCc4c(cc(OC)c(OC)c4OC)O3)c2)cc1 (stereo unspecified)	false

Task: Which result was noted for this compound in the test: NCCCCCCNc1cc(-c2cccc(OC(F)(F)F)c2)nc2ccc(N3CCCC3)cc12
Output: true

Task: Answer briefly: the call reported for C=C(CBr)[C@@H]1CC[C@]2(COC(C)=O)CC[C@]3(C)[C@H](CC[C@@H]4[C@@]5(C)CCCNC(C)(C)[C@@H]5CC[C@]43C)[C@@H]12 in this assay.
Output: false
